# System tested: NDUFA6
# Construct: SPR protein; species is a guess, rat possible
# Test summary: SPR, Biacore 8K, […] Langmuir kinetic fit
Measure name: Kd (nM)
Numbers only, in nM.

# Kd (compound: O=C(/C=C/c1ccc(O)c(O)c1)O[C@@H]1C[C@](OC(=O)/C=C/c2ccc(O)c(O)c2)(C(=O)O)C[C@@H](O)[C@H]1O [1,5-dicaffeoylquinic acid] ) is 735
